# credit: ChEMBL document CHEMBL1821583

In this section, each of the compounds is paired with its reported IC50.
molecular target: Protein smoothened (Homo sapiens, UniProt Q99835); experiment: Displacement of BODIPY-cyclopamine from Smo expressed in COS-1 cells after 4 to 6 hrs by Flow Cytometry analysis in presence of 2% fetal calf serum; format: cell-based
Sequence (Q99835 whole entry): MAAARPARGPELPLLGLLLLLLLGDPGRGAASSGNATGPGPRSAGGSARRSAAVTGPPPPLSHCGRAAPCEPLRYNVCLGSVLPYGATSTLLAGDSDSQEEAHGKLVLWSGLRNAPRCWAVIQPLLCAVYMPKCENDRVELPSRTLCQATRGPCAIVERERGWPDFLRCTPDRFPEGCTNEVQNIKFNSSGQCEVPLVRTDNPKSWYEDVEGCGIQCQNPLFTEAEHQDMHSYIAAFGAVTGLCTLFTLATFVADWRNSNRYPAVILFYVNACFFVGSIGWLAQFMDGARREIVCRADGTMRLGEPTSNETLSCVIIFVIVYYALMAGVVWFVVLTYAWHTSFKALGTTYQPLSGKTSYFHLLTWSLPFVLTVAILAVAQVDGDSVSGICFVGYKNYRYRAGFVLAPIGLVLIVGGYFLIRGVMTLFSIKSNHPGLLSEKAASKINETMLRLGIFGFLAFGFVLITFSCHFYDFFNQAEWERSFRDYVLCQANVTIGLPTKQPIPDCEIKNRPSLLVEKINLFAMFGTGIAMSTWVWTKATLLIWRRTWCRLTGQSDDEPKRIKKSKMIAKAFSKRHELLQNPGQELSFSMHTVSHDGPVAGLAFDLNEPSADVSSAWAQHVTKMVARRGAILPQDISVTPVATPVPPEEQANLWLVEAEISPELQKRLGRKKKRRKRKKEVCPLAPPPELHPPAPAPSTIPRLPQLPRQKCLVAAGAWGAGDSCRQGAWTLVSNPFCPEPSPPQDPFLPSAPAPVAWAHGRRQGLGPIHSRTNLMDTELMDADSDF
Give a bare numeral; the unit nM is implied.

## Task For the compound shown here, O=C(NCC(c1cccnc1)N1CCOCC1)N1CCC(c2nc(-c3ccc4ccccc4n3)no2)CC1 (centres undefined) , give the reported IC50.
## Result 2600

## Task For the compound shown here, CC(C)(CNC(=O)N1CCC(c2nc(-c3ccc4ccccc4n3)no2)CC1)N1CCOCC1 , give the reported IC50.
## Result 290

## Task For the compound shown here, O=C(NCC1(N2CCOCC2)CCCC1)N1CCC(c2nc(-c3ccc4ccccc4n3)no2)CC1 , give the reported IC50.
## Result 30

## Task For the compound shown here, O=C(NC1CCC(F)(F)CC1)N1CCN(c2nc(-c3ccc4ccccc4n3)no2)CC1 , give the reported IC50.
## Result 13

## Task For the compound shown here, CCN1CCCC1CNC(=O)N1CCC(c2nc(-c3ccc4ccccc4n3)no2)CC1 (centres undefined) , give the reported IC50.
## Result 290

====

target: UniProt:Q99835; test: Displacement of BODIPY-cyclopamine from Smo expressed in COS-1 cells after 4 to 6 hrs by Flow Cytometry analysis in presence of 20% normal human serum; assay type: cell-based
ASSAY_ENDPOINT: IC50 (nM)
Give a bare numeral; the unit nM is implied.

MOLECULE	IC50 [nM]
O=C(NCC1(N2CCOCC2)CCCCC1)N1CCC(c2nc(-c3ccc4ccccc4n3)no2)CC1	72
O=C(NCC1(N2CCOCC2)CCCCCC1)N1CCC(c2nc(-c3ccc4ccccc4n3)no2)CC1	480

## Task For the molecule shown here, Cn1c(-c2noc(C3CCN(C(=O)NCC4(N5CCOCC5)CCCC4)CC3)n2)nc2ccccc21 , give the reported IC50.
## Result 15

## Task For the molecule shown here, CC(C)(CNC(=O)N1CCC(c2nc(-c3ccc4ccccc4n3)no2)CC1)N1CCOCC1 , give the reported IC50.
## Result 670

## Task For the molecule shown here, CC(C)N1CCCC1CNC(=O)N1CCC(c2nc(-c3ccc4ccccc4n3)no2)CC1 (stereo not given) , give the reported IC50.
## Result 650

## Task For the molecule shown here, O=C(NCC1(N2CCOCC2)CCCC1)N1CCN(c2nc(-c3ccc4ccccc4n3)no2)CC1 , give the reported IC50.
## Result 15

## Task For the molecule shown here, Cn1c(-c2noc(N3CCN(C(=O)NCC4(N5CCCCC5)CCCC4)CC3)n2)nc2ccccc21 , give the reported IC50.
## Result 6

## Task For the molecule shown here, O=C(NCC1NCCc2ccccc21)N1CCC(c2nc(-c3ccc4ccccc4n3)no2)CC1 (stereo not given) , give the reported IC50.
## Result 600

## Task For the molecule shown here, O=C(NCC1(N2CCC(F)CC2)CCCC1)N1CCC(c2nc(-c3ccc4ccccc4n3)no2)CC1 , give the reported IC50.
## Result 200

## Task For the molecule shown here, O=C(NCCN1CCOCC1)N1CCC(c2nc(-c3ccc4ccccc4n3)no2)CC1 , give the reported IC50.
## Result 3400

====

experiment: Inhibition of hedgehog signaling pathway in mouse Shh Light2 cells by Gli-dependent reporter gene assay; type: functional, cell-based; conditions: Shh Light II
In this section, each of the compounds is paired with its reported log10 of IC50.
Scale: decimal log of IC50, IC50 in nM.

The examples below pair each entry with its known result.
COMPOUND	ASSAY_ENDPOINT	OBSERVED_RESULT
O=C(NCC1(NC2CCCCC2)CCCC1)N1CCC(c2nc(-c3ccc4ccccc4n3)no2)CC1	log10 of IC50	2.63
O=C(NCCN1CCOCC1)N1CCC(c2nc(-c3ccc4ccccc4n3)no2)CC1	log10 of IC50	3.40

## Task For the compound shown here, Cn1c(-c2noc(C3CCN(C(=O)NCC4(N5CCOCC5)CCCC4)CC3)n2)nc2ccccc21 , give the reported log10 of IC50.
## Result 1.26

## Task For the compound shown here, O=C(NCC(c1ccncc1)N1CCOCC1)N1CCC(c2nc(-c3ccc4ccccc4n3)no2)CC1 (centres undefined) , give the reported log10 of IC50.
## Result 3.91

## Task For the compound shown here, O=C(NCC1(N2CCOCC2)CCCC1)N1CCN(c2nc(-c3ccc4ccccc4n3)no2)CC1 , give the reported log10 of IC50.
## Result 1.20

## Task For the compound shown here, CC(C)(CNC(=O)N1CCC(c2nc(-c3ccc4ccccc4n3)no2)CC1)N1CCOCC1 , give the reported log10 of IC50.
## Result 2.65

## Task For the compound shown here, O=C(NCC1(N2CCOCC2)CCCCC1)N1CCC(c2nc(-c3ccc4ccccc4n3)no2)CC1 , give the reported log10 of IC50.
## Result 2.15

## Task For the compound shown here, CN1CCc2ccccc2C1CNC(=O)N1CCC(c2nc(-c3ccc4ccccc4n3)no2)CC1 (centres undefined) , give the reported log10 of IC50.
## Result 2.58

## Task For the compound shown here, O=C(NCC1(N2CCC(F)(F)CC2)CCCC1)N1CCC(c2nc(-c3ccc4ccccc4n3)no2)CC1 , give the reported log10 of IC50.
## Result 2.00

====

target: Protein smoothened (Homo sapiens, UniProt Q99835); assay: Displacement of BODIPY-cyclopamine from Smo expressed in COS-1 cells after 4 to 6 hrs by Flow Cytometry analysis in presence of 20% normal human serum; format: cell-based
Kindly note that classification relies on IC50 with these boundaries: low: < 0.09 µM; intermediate: ≥ 0.09 µM and < 7 µM; high: ≥ 7 µM

MOLECULE	ASSIGNED_CLASS
O=C(NCC(c1ccncc1)N1CCOCC1)N1CCC(c2nc(-c3ccc4ccccc4n3)no2)CC1 (centres undefined)	high

## Task GET /class?item= O=C(NCC(c1ccccn1)N1CCOCC1)N1CCC(c2nc(-c3ccc4ccccc4n3)no2)CC1 (centres undefined)
## Result intermediate

## Task GET /class?item= O=C(NCC1(c2ccccc2)CCCC1)N1CCC(c2nc(-c3ccc4ccccc4n3)no2)CC1
## Result intermediate

## Task GET /class?item= CC(C)NC1(CNC(=O)N2CCC(c3nc(-c4ccc5ccccc5n4)no3)CC2)CCCC1
## Result low

## Task GET /class?item= CC(=O)NC1(CNC(=O)N2CCC(c3nc(-c4ccc5ccccc5n4)no3)CC2)CCCC1
## Result high

## Task GET /class?item= CN1CCc2ccccc2C1CNC(=O)N1CCC(c2nc(-c3ccc4ccccc4n3)no2)CC1 (centres undefined)
## Result intermediate

## Task GET /class?item= Cn1c(-c2noc(C3CCN(C(=O)NCC4(N5CCCCC5)CCCC4)CC3)n2)nc2ccccc21
## Result low

====

experiment: Intrinsic clearance in rat liver microsomes assessed per mg of protein; format: ADME, Microsome
Checkbox rule: microsomal CLint lower than 50 µL/min/mg = Fulfilled; microsomal CLint not lower than 50 µL/min/mg = Not fulfilled.

Worked set:
COMPOUND	ASSIGNED_CLASS
O=C(NCC1(N2CCOCC2)CCCC1)N1CCC(c2nc(-c3ccc4ccccc4n3)no2)CC1	Not fulfilled
CN(C)C1(CNC(=O)N2CCC(c3nc(-c4ccc5ccccc5n4)no3)CC2)CCCC1	Fulfilled
CC(C)N1CCCC1CNC(=O)N1CCC(c2nc(-c3ccc4ccccc4n3)no2)CC1 (centres undefined)	Fulfilled

## Task Could you please tell me whether microsomal CLint recorded for O=C(NCC1(N2CCCCC2)CCCC1)N1CCC(c2nc(-c3ccc4ccccc4n3)no2)CC1 is less than 50 µL/min/mg?
## Result Not fulfilled

## Task Could you please tell me whether microsomal CLint recorded for CC(C)(CNC(=O)N1CCC(c2nc(-c3ccc4ccccc4n3)no2)CC1)N1CCOCC1 is less than 50 µL/min/mg?
## Result Not fulfilled

## Task Could you please tell me whether microsomal CLint recorded for O=C(NCC1(N2CCOCC2)CCCCC1)N1CCC(c2nc(-c3ccc4ccccc4n3)no2)CC1 is less than 50 µL/min/mg?
## Result Not fulfilled

## Task Could you please tell me whether microsomal CLint recorded for O=C(NCC1(N2CCCC2)CCCC1)N1CCC(c2nc(-c3ccc4ccccc4n3)no2)CC1 is less than 50 µL/min/mg?
## Result Not fulfilled

## Task Could you please tell me whether microsomal CLint recorded for CCN(CC)C1(CNC(=O)N2CCC(c3nc(-c4ccc5ccccc5n4)no3)CC2)CCCC1 is less than 50 µL/min/mg?
## Result Not fulfilled

====

target: Protein smoothened (Homo sapiens); assay: Displacement of BODIPY-cyclopamine from Smo expressed in COS-1 cells after 4 to 6 hrs by Flow Cytometry analysis in presence of 20% normal human serum; format: cell-based
Checkbox rule: IC50 lower than 500 nM = criterion met; IC50 not lower than 500 nM = criterion not met.

Worked set:
COMPOUND	ASSIGNED_CLASS
O=C(NCC1(N2CCC(F)(F)CC2)CCCC1)N1CCC(c2nc(-c3ccc4ccccc4n3)no2)CC1	criterion not met
COC1CCN(C2(CNC(=O)N3CCC(c4nc(-c5ccc6ccccc6n5)no4)CC3)CCCC2)CC1	criterion not met
CCN(CC)C1(CNC(=O)N2CCC(c3nc(-c4ccc5ccccc5n4)no3)CC2)CCCC1	criterion met
O=C(NCC(c1cccnc1)N1CCOCC1)N1CCC(c2nc(-c3ccc4ccccc4n3)no2)CC1 (centres undefined)	criterion not met

## Task Could you please tell me whether IC50 recorded for O=C(NCC1(N2CCCCC2)CCCC1)N1CCC(c2nc(-c3ccc4ccccc4n3)no2)CC1 is less than 500 nM?
## Result criterion met

## Task Could you please tell me whether IC50 recorded for O=C(NCC(c1ccccc1)N1CCCCC1)N1CCC(c2nc(-c3ccc4ccccc4n3)no2)CC1 (centres undefined) is less than 500 nM?
## Result criterion met

## Task Could you please tell me whether IC50 recorded for O=C(NCC1(N2CCOCC2)CCCC1)N1CCC(c2nc(-c3ccc4ccccc4n3)no2)CC1 is less than 500 nM?
## Result criterion met

## Task Could you please tell me whether IC50 recorded for NC1(CNC(=O)N2CCC(c3nc(-c4ccc5ccccc5n4)no3)CC2)CCCC1 is less than 500 nM?
## Result criterion not met

## Task Could you please tell me whether IC50 recorded for O=C(NC1CCC(F)(F)CC1)N1CCN(c2nc(-c3ccc4ccccc4n3)no2)CC1 is less than 500 nM?
## Result criterion met
